Reference source for all entries: ChEMBL document CHEMBL4004803

I'd appreciate it if you could supply MIC values for the items below.
test system: Staphylococcus aureus; assay: Antibacterial activity against methicillin-resistant Staphylococcus aureus 20339 clinical isolate after 20 to 24 hrs by two-fold microdilution method; format: functional
One number for each entry, in µg/mL.

- O=C1c2cccnc2C(=O)c2c1c(C(=O)OCCCCCN1CCOCC1)c1ccc(Br)cn21: 0.063

Dear colleague, could you send me MIC for each of the items below? Thanks.
1. CN(C)CCCCCOC(=O)c1c2c(n3cc(Br)ccc13)C(=O)c1ncccc1C2=O
2. O=C1c2cccnc2C(=O)c2c1c(C(=O)OCCCCN1CCOCC1)c1ccc(Br)cn21
3. O=C1c2cccnc2C(=O)c2c1c(C(=O)OCCCCCCN1CCCCC1)c1ccc(Br)cn21
4. CN1CCN(CCCCCCOC(=O)c2c3c(n4cc(Br)ccc24)C(=O)c2ncccc2C3=O)CC1

OUT:
1. 0.5
2. 0.5
3. 0.125
4. 0.5

* * *

tested on: Staphylococcus aureus; assay: Antibacterial activity against methicillin-resistant Staphylococcus aureus 219236 clinical isolate after 20 to 24 hrs by two-fold microdilution method; format: functional
Please provide measured MIC for the entries that follow.
Numbers only, in µg/mL.

- CN(C)CCCCCOC(=O)c1c2c(n3cc(Br)ccc13)C(=O)c1ncccc1C2=O: 0.125

Hey, quick one: what's MIC for each of these?
1. O=C1c2cccnc2C(=O)c2c1c(C(=O)OCCCCCN1CCOCC1)c1ccc(Br)cn21
2. O=C1c2cccnc2C(=O)c2c1c(C(=O)OCCCCN1CCOCC1)c1ccc(Br)cn21

OUT:
[0.031, 0.063]

CN1CCN(CCCCCCOC(=O)c2c3c(n4cc(Br)ccc24)C(=O)c2ncccc2C3=O)CC1 has a reported MIC of 0.063

* * *

test system: Staphylococcus aureus; experiment: Antibacterial activity against methicillin-resistant Staphylococcus aureus 110834 clinical isolate after 20 to 24 hrs by two-fold microdilution method; format: functional
Threshold 0.1 µg/mL: MIC strictly smaller gives yes (1), otherwise no (0).

- O=C1c2cccnc2C(=O)c2c1c(C(=O)OCCCCCN1CCOCC1)c1ccc(Br)cn21: yes (1)
- O=C1c2cccnc2C(=O)c2c1c(C(=O)OCCCCCCN1CCCCC1)c1ccc(Br)cn21: yes (1)

With those in mind, consider the next molecule.
IN: For this molecule, is MIC lower than 0.1 µg/mL? CN1CCN(CCCCCCOC(=O)c2c3c(n4cc(Br)ccc24)C(=O)c2ncccc2C3=O)CC1
OUT: no (0)

* * *

Would you kindly list MIC for each of these compounds?
tested on: Staphylococcus aureus; assay: Antibacterial activity against methicillin-resistant Staphylococcus aureus 316031 clinical isolate after 20 to 24 hrs by two-fold microdilution method; assay type: functional

# annotated cases, reported MIC shown
• CN(C)CCCCCOC(=O)c1c2c(n3cc(Br)ccc13)C(=O)c1ncccc1C2=O = 0.5 µg/mL
• O=C1c2cccnc2C(=O)c2c1c(C(=O)OCCCCCN1CCOCC1)c1ccc(Br)cn21 = 0.031 µg/mL
• O=C1c2cccnc2C(=O)c2c1c(C(=O)OCCCCN1CCOCC1)c1ccc(Br)cn21 = 0.5 µg/mL
• O=C1c2cccnc2C(=O)c2c1c(C(=O)OCCCCCCN1CCCCC1)c1ccc(Br)cn21 = 0.125 µg/mL
• O=C1c2cccnc2C(=O)c2c1c(C(=O)OCCCCCCN1CCOCC1)c1ccc(Br)cn21 = ≤ 0.0078 µg/mL

Okay, now this compound:
Looking up CN1CCN(CCCCCCOC(=O)c2c3c(n4cc(Br)ccc24)C(=O)c2ncccc2C3=O)CC1 , I see its MIC listed as 0.25 µg/mL

* * *

test system: Staphylococcus aureus; assay: Antibacterial activity against methicillin-resistant Staphylococcus aureus 10281-2 clinical isolate after 20 to 24 hrs by two-fold microdilution method; assay type: functional
Exercise: for every item that follows, state its recorded MIC.
Answers are plain numbers, in µg/mL.

* CN(C)CCCCCOC(=O)c1c2c(n3cc(Br)ccc13)C(=O)c1ncccc1C2=O | 0.25
* O=C1c2cccnc2C(=O)c2c1c(C(=O)OCCCCCCN1CCCCC1)c1ccc(Br)cn21 | 0.063

// moving on: another record for MIC
Data point: O=C1c2cccnc2C(=O)c2c1c(C(=O)OCCCCN1CCOCC1)c1ccc(Br)cn21 ; MIC = 0.5

* * *

Provide the reported log10(MIC) of each item.
system: Enterococcus faecalis; assay: Antibacterial activity against Enterococcus faecalis ATCC 29212 after 20 to 24 hrs by two-fold microdilution method; type: functional
Values are log10 of MIC in µg/mL.

- CN(C)CCCCOC(=O)c1c2c(n3cc(Br)ccc13)C(=O)c1ncccc1C2=O: 0.30
- CN1CCN(CCCCOC(=O)c2c3c(n4cc(Br)ccc24)C(=O)c2ncccc2C3=O)CC1: -0.30

For each of the molecules below, note its log10(MIC).
1. CN1CCN(CCCCCCOC(=O)c2c3c(n4cc(Br)ccc24)C(=O)c2ncccc2C3=O)CC1
2. CN1CCN(CCOC(=O)c2c3c(n4cc(Br)ccc24)C(=O)c2ncccc2C3=O)CC1

OUT:
1: -0.60; 2: 0.90

Count: 6. Required value per item: log10(MIC).
1. O=C1c2cccnc2C(=O)c2c1c(C(=O)OCCCCN1CCCC1)c1ccc(Br)cn21
2. CC1(C)S[C@@H]2[C@H](NC(=O)Cc3ccccc3)C(=O)N2[C@H]1C(=O)O
3. O=C1c2cccnc2C(=O)c2c1c(C(=O)OCCCCCCN1CCCCC1)c1ccc(Br)cn21
4. CN(C)CCCCCOC(=O)c1c2c(n3cc(Br)ccc13)C(=O)c1ncccc1C2=O
5. O=C1c2cccnc2C(=O)c2c1c(C(=O)OCCCN1CCOCC1)c1ccc(Br)cn21
6. COP(=O)(CCOC(=O)c1c2c(n3cc(Br)ccc13)C(=O)c1ncccc1C2=O)OC

OUT:
[0.00, 0.00, -0.90, -0.90, 0.30, -0.30]

Okay, here is my list. What is log10(MIC) for each of these?
1. O=C1c2cccnc2C(=O)c2c1c(C(=O)OCCCCCCN1CCCC1)c1ccc(Br)cn21
2. CCOC(=O)c1c2c(n3cc(Br)ccc13)C(=O)c1ncccc1C2=O
3. O=C1c2cccnc2C(=O)c2c1c(C(=O)OCCCN1CCCC1)c1ccc(Br)cn21
4. O=C1c2cccnc2C(=O)c2c1c(C(=O)OCCCCN1CCCCC1)c1ccc(Br)cn21
5. CN(C)CCCOC(=O)c1c2c(n3cc(Br)ccc13)C(=O)c1ncccc1C2=O

OUT:
-0.30
-1.80
0.00
0.00
0.30

For every item below, please supply its log10(MIC).
1. O=C1c2cccnc2C(=O)c2c1c(C(=O)OCCO)c1ccc(Br)cn21
2. O=C1c2cccnc2C(=O)c2c1c(C(=O)OCCCCCN1CCOCC1)c1ccc(Br)cn21
3. CN(C)CCCCCCOC(=O)c1c2c(n3cc(Br)ccc13)C(=O)c1ncccc1C2=O
4. O=C1c2cccnc2C(=O)c2c1c(C(=O)OCCCO)c1ccc(Br)cn21
5. O=C1c2cccnc2C(=O)c2c1c(C(=O)OCCCN1CCCCC1)c1ccc(Br)cn21

OUT:
1: -0.60; 2: -0.60; 3: -0.30; 4: -0.60; 5: 0.60

* * *

test system: Staphylococcus aureus; assay: Antibacterial activity against methicillin-resistant Staphylococcus aureus 504008 clinical isolate after 20 to 24 hrs by two-fold microdilution method; type: functional
readout.label: MIC (mg/L)
Numbers only, in mg/L.

Here are 4 compounds together with their reported answers.
* CN(C)CCCCCOC(=O)c1c2c(n3cc(Br)ccc13)C(=O)c1ncccc1C2=O | 0.5
* O=C1c2cccnc2C(=O)c2c1c(C(=O)OCCCCCN1CCOCC1)c1ccc(Br)cn21 | 0.063
* O=C1c2cccnc2C(=O)c2c1c(C(=O)OCCCCCCN1CCCCC1)c1ccc(Br)cn21 | 0.063
* CN1CCN(CCCCCCOC(=O)c2c3c(n4cc(Br)ccc24)C(=O)c2ncccc2C3=O)CC1 | 0.125

Here is the next item to consider.
// returns MIC for O=C1c2cccnc2C(=O)c2c1c(C(=O)OCCCCN1CCOCC1)c1ccc(Br)cn21 with Staphylococcus aureus; value = 0.25

* * *

Please go through the items and note down their MIC.
test system: Staphylococcus aureus; assay: Antibacterial activity against methicillin-resistant Staphylococcus aureus 519238 clinical isolate after 20 to 24 hrs by two-fold microdilution method; assay type: functional
Give bare numbers, in µg/mL.

Working through the 3 molecules below one at a time, give MIC for each.
1. CN(C)CCCCCOC(=O)c1c2c(n3cc(Br)ccc13)C(=O)c1ncccc1C2=O
2. O=C1c2cccnc2C(=O)c2c1c(C(=O)OCCCCN1CCOCC1)c1ccc(Br)cn21
3. O=C1c2cccnc2C(=O)c2c1c(C(=O)OCCCCCN1CCOCC1)c1ccc(Br)cn21

OUT:
1
0.5
0.125

Required: MIC, one value per molecule below.
1. O=C1c2cccnc2C(=O)c2c1c(C(=O)OCCCCCCN1CCCCC1)c1ccc(Br)cn21
2. CN1CCN(CCCCCCOC(=O)c2c3c(n4cc(Br)ccc24)C(=O)c2ncccc2C3=O)CC1

OUT:
[0.125, 0.25]
